Please provide measured Dose of calcium chloride causing arrhythmia for the entries that follow.
- Tested on: arrhythmia caused by introduction of calcium chloride
- experiment-notes: Antiarrhythmic activity on the model of arrhythmia caused by calcium chloride (antagonism towards calcium)
- Type: in vivo, mice
- experimental-parameters: compound dose 5 mg/kg i.p.; control 85.0
// return just the number, without any unit appended

Input line: Query the reported Dose of calcium chloride causing arrhythmia for arrhythmia caused by introduction of calcium chloride; item: CC[N+](C)(C)NCCC(=O)[O-] [monohydrate]
Output line: 83.0

Input line: Query the reported Dose of calcium chloride causing arrhythmia for arrhythmia caused by introduction of calcium chloride; item: `C[N+](C)(Cc1ccccc1)NCCC(=O)[O-]`
Output line: 90.9

Input line: Query the reported Dose of calcium chloride causing arrhythmia for arrhythmia caused by introduction of calcium chloride; item: `C=CC[N+](C)(C)NCCC(=O)[O-]`
Output line: 99.6

Input line: Query the reported Dose of calcium chloride causing arrhythmia for arrhythmia caused by introduction of calcium chloride; item: CC[N+](C)(CC)NCCC(=O)[O-] [monohydrate]
Output line: 105.5

Input line: Query the reported Dose of calcium chloride causing arrhythmia for arrhythmia caused by introduction of calcium chloride; item: `C[N+](C)(Cc1cccc2ccccc12)NCCC(=O)[O-]`
Output line: 108.0

Input line: Query the reported Dose of calcium chloride causing arrhythmia for arrhythmia caused by introduction of calcium chloride; item: C[N+](C)(CCc1ccccc1)NCCC(=O)[O-] [dihydrate]
Output line: 88.7

Input line: Query the reported Dose of calcium chloride causing arrhythmia for arrhythmia caused by introduction of calcium chloride; item: `CCC[N+](C)(C)NCCC(=O)[O-]`
Output line: 112.5

Input line: Query the reported Dose of calcium chloride causing arrhythmia for arrhythmia caused by introduction of calcium chloride; item: `C#CC[N+](C)(C)NCCC(=O)[O-]`
Output line: 110.4

Input line: Query the reported Dose of calcium chloride causing arrhythmia for arrhythmia caused by introduction of calcium chloride; item: C[N+](C)(CC[N+](C)(C)NCCC(=O)[O-])NCCC(=O)[O-] [dihydrate]
Output line: 96.0

Input line: Query the reported Dose of calcium chloride causing arrhythmia for arrhythmia caused by introduction of calcium chloride; item: `CCCCCCCCCCCCCCCC[N+](C)(C)NCCC(=O)[O-]`
Output line: 130.5

Input line: Query the reported Dose of calcium chloride causing arrhythmia for arrhythmia caused by introduction of calcium chloride; item: CC[N+](CC)(CC)NCCC(=O)[O-] [3-(2,2,2-Triethylhydrazinium)propionate, monohydrate]
Output line: 100.0

---

- System: hypertensive male rats of the Akamoto-Aoki line
- experiment-notes: Variation of arterial pressure upon intraperitoneal administration to hypertensive rats
- Format: in vivo
- experimental-parameters: 30 minutes; 50 mg/kg i.p. (nifedipine 1 mg/kg i.p.)
Please provide measured Average variation of the diastolic arterial pressure for the entries that follow.

Input line: Requested field: Average variation of the diastolic arterial pressure. Item: `C#CC[N+](C)(C)NCCC(=O)[O-]`
Output line: -17 % of the initial

Input line: Requested field: Average variation of the diastolic arterial pressure. Item: `C[N+](C)(Cc1ccccc1)NCCC(=O)[O-]`
Output line: -14 % of the initial

Input line: Requested field: Average variation of the diastolic arterial pressure. Item: `C=CC[N+](C)(C)NCCC(=O)[O-]`
Output line: -10 % of the initial

Input line: Requested field: Average variation of the diastolic arterial pressure. Item: CC[N+](C)(C)NCCC(=O)[O-] [monohydrate]
Output line: -2 % of the initial

Input line: Requested field: Average variation of the diastolic arterial pressure. Item: COC(=O)C1=C(C)NC(C)=C(C(=O)OC)C1c1ccccc1[N+](=O)[O-] [Nifedipine, reference compound]
Output line: -8 % of the initial

Input line: Requested field: Average variation of the diastolic arterial pressure. Item: `C[N+](C)(Cc1cccc2ccccc12)NCCC(=O)[O-]`
Output line: 0 % of the initial

Input line: Requested field: Average variation of the diastolic arterial pressure. Item: CC[N+](C)(CC)NCCC(=O)[O-] [monohydrate]
Output line: +10 % of the initial

---

- Test system: arrhythmia caused by introduction of calcium chloride
- experiment-notes: Antiarrhythmic activity on the model of arrhythmia caused by calcium chloride (antagonism towards calcium)
- Type: in vivo, mice
- experimental-parameters: compound dose 25 mg/kg i.p.; control 85.0
quantity-name: Dose of calcium chloride causing arrhythmia

Input line: Requested field: Dose of calcium chloride causing arrhythmia. Item: `CCCCCCCCCCCCCCCC[N+](C)(C)NCCC(=O)[O-]`
Output line: 102.7

Input line: Requested field: Dose of calcium chloride causing arrhythmia. Item: `C[N+](C)(Cc1ccccc1)NCCC(=O)[O-]`
Output line: 111.0

Input line: Requested field: Dose of calcium chloride causing arrhythmia. Item: `C=CC[N+](C)(C)NCCC(=O)[O-]`
Output line: 95.2

Input line: Requested field: Dose of calcium chloride causing arrhythmia. Item: CC[N+](C)(C)NCCC(=O)[O-] [monohydrate]
Output line: 91.0

---

- experiment-notes: Acute toxicity upon intraperitoneal administration to white mice
- Type: in vivo
- experimental-parameters: mouse, in vivo, ip, 14 days observation, average values with confidential limits at P=0.05
- Procedure: The acute toxicity of the compounds according to the present invention was studied on white mice of both sexes with a mass of 20-25 g. A saturated aqueous solution of the compounds or a suspension in Tween-80 was administered to the animals intraperitoneally. The observation over the animals was carried out for 14 days. The results obtained were processed following the Litchfield-Wilkoxon method. […]
Please provide measured LD50 at 336 h for the entries that follow.
The response must be a number in mg/kg with no trailing unit.

Input line: Requested field: LD50 at 336 h. Item: C[N+](C)(CC[N+](C)(C)NCCC(=O)[O-])NCCC(=O)[O-] [dihydrate]
Output line: 2100

Input line: Requested field: LD50 at 336 h. Item: C=C[C@H]1C[N@@]2CC[C@H]1C[C@@H]2[C@@H](O)c1ccnc2ccc(OC)cc12 [Quinidine, reference compound]
Output line: 156

Input line: Requested field: LD50 at 336 h. Item: `CCC[N+](C)(C)NCCC(=O)[O-]`
Output line: 1800

Input line: Requested field: LD50 at 336 h. Item: `C#CC[N+](C)(C)NCCC(=O)[O-]`
Output line: 1650

Input line: Requested field: LD50 at 336 h. Item: CCN(CC)CCNC(=O)c1ccc(N)cc1 [Novocainamide, reference compound]
Output line: 290

Input line: Requested field: LD50 at 336 h. Item: `CCCCCCCCCCCCCCCC[N+](C)(C)NCCC(=O)[O-]`
Output line: 1450

Input line: Requested field: LD50 at 336 h. Item: CC[N+](C)(C)NCCC(=O)[O-] [monohydrate]
Output line: 2300

Input line: Requested field: LD50 at 336 h. Item: `C[N+](C)(Cc1ccccc1)NCCC(=O)[O-]`
Output line: 8100

Input line: Requested field: LD50 at 336 h. Item: `C=CC[N+](C)(C)NCCC(=O)[O-]`
Output line: 10600

Input line: Requested field: LD50 at 336 h. Item: C[N+](C)(CCc1ccccc1)NCCC(=O)[O-] [dihydrate]
Output line: 1850

Input line: Requested field: LD50 at 336 h. Item: CC[N+](C)(CC)NCCC(=O)[O-] [monohydrate]
Output line: 1450

---

- System: white mice
- experiment-notes: Acute toxicity upon intraperitoneal administration to white mice
- Format: in vivo
- experimental-parameters: i.p.
quantity-name: Relative toxicity with respect to quinidine (LD50 / LD50 of quinidine)
// return just the number, without any unit appended

Input line: Requested field: Relative toxicity with respect to quinidine (LD50 / LD50 of quinidine). Item: CC[N+](C)(C)NCCC(=O)[O-] [monohydrate]
Output line: 14.7

Input line: Requested field: Relative toxicity with respect to quinidine (LD50 / LD50 of quinidine). Item: CC[N+](C)(CC)NCCC(=O)[O-] [monohydrate]
Output line: 9.3

Input line: Requested field: Relative toxicity with respect to quinidine (LD50 / LD50 of quinidine). Item: C[N+](C)(CCc1ccccc1)NCCC(=O)[O-] [dihydrate]
Output line: 11.8

Input line: Requested field: Relative toxicity with respect to quinidine (LD50 / LD50 of quinidine). Item: `C=CC[N+](C)(C)NCCC(=O)[O-]`
Output line: 67.9

Input line: Requested field: Relative toxicity with respect to quinidine (LD50 / LD50 of quinidine). Item: C=C[C@H]1C[N@@]2CC[C@H]1C[C@@H]2[C@@H](O)c1ccnc2ccc(OC)cc12 [Quinidine, reference compound]
Output line: 1

Input line: Requested field: Relative toxicity with respect to quinidine (LD50 / LD50 of quinidine). Item: CCN(CC)CCNC(=O)c1ccc(N)cc1 [Novocainamide, reference compound]
Output line: 1.85

Input line: Requested field: Relative toxicity with respect to quinidine (LD50 / LD50 of quinidine). Item: `C[N+](C)(Cc1ccccc1)NCCC(=O)[O-]`
Output line: 51.9

Input line: Requested field: Relative toxicity with respect to quinidine (LD50 / LD50 of quinidine). Item: `C#CC[N+](C)(C)NCCC(=O)[O-]`
Output line: 10.5

Input line: Requested field: Relative toxicity with respect to quinidine (LD50 / LD50 of quinidine). Item: C[N+](C)(CC[N+](C)(C)NCCC(=O)[O-])NCCC(=O)[O-] [dihydrate]
Output line: 13.4

Input line: Requested field: Relative toxicity with respect to quinidine (LD50 / LD50 of quinidine). Item: `CCC[N+](C)(C)NCCC(=O)[O-]`
Output line: 11.5

Input line: Requested field: Relative toxicity with respect to quinidine (LD50 / LD50 of quinidine). Item: `CCCCCCCCCCCCCCCC[N+](C)(C)NCCC(=O)[O-]`
Output line: 9.3
